Kindly state log10 IC50 for each of the entries shown.
# assay_method_text: Phototoxicity in 3.75 J/cm'2 UV-A irradiated human NCTC-2544 cells after 72 hrs by MTT assay
# Type: functional, cell-based
# assay_conditions: NCTC-2544, light or radiation study
Please note: log10 values; quantity IC50; unit µM.

Some compounds with known log10 IC50 results, for comparison:
// returns reported log10 IC50 for input `CCOC(=O)c1[nH]c(C)c2c1CCc1cc(S(=O)(=O)c3ccccc3)c(=O)[nH]c1-2`
1.18

Value lookup for log10 IC50; key = `Cc1c2c(cn1Cc1ccccc1)CCc1cc(S(=O)(=O)c3ccccc3)c(=O)[nH]c1-2`
1.16

Can you look up the measured log10 IC50 of `COc1nc2c(cc1S(=O)(=O)c1ccccc1)CCc1cn(C)cc1-2` for me?
0.04

Given the compound `CCOC(=O)c1c2c(c(C)n1C)-c1c(cc(S(=O)(=O)c3ccccc3)c(=O)n1C)CC2` , what is its reported log10 IC50?
0.11

So what does the record say about log10 IC50 for `CCOC(=O)c1c2c(c(C)n1Cc1ccccc1)-c1c(cc(S(=O)(=O)c3ccccc3)c(=O)n1C)CC2` ?
1.16

Let us examine a further case.
// log10 IC50 lookup, key: O=c1ccc2ccc3occc3c2o1 [ANGELICIN]
-0.05

----------
# Test system: LoVo
# assay_method_text: Phototoxicity in 2.5 J/cm'2 UV-A irradiated human LoVo cells after 72 hrs by MTT assay
# Assay type: functional, cell-based
# assay_conditions: light or radiation study
Assign pIC50 to each entry below.
One number for each entry, as −log10 of the molar value.

# query: pIC50 of entry `Cn1c2c(cc(S(=O)(=O)c3ccccc3)c1=O)CCc1cn(Cc3ccccc3)cc1-2`
5.41

Query (molecule): `O=c1ccc2ccc3occc3c2o1` ; field requested: pIC50
5.40

Dear colleague, could you send me pIC50 for each of the items below? Thanks.
1. CCOC(=O)c1c2c(c(C)n1C)-c1[nH]c(=O)c(S(=O)(=O)c3ccccc3)cc1CC2
2. CCOC(=O)c1c2c(c(C)n1Cc1ccccc1)-c1[nH]c(=O)c(S(=O)(=O)c3ccccc3)cc1CC2
3. CCOC(=O)c1[nH]c(C)c2c1CCc1cc(S(=O)(=O)c3ccccc3)c(=O)[nH]c1-2
4. COc1nc2c(cc1S(=O)(=O)c1ccccc1)CCc1cn(Cc3ccccc3)cc1-2

[5.10, 5.40, 4.76, 5.00]

----------
Give pIC50 for every item shown.
# Test system: Jurkat
# assay_method_text: Phototoxicity in 2.5 J/cm'2 UV-A irradiated human Jurkat cells after 72 hrs by MTT assay
# Format: functional, cell-based
# assay_conditions: light or radiation study
One number for each entry, as −log10 of the molar value.

Worked examples follow.
Looking for the measured pIC50 of `Cc1c2c(cn1Cc1ccccc1)CCc1cc(S(=O)(=O)c3ccccc3)c(=O)[nH]c1-2` , can you help?
4.89

Endpoint output: pIC50 of `CCOC(=O)c1c2c(c(C)n1C)-c1[nH]c(=O)c(S(=O)(=O)c3ccccc3)cc1CC2` . Value?
5.70

// each molecule listed below needs its pIC50
1. COc1nc2c(cc1S(=O)(=O)c1ccccc1)CCc1cn(Cc3ccccc3)cc1-2
2. Cn1c2c(cc(S(=O)(=O)c3ccccc3)c1=O)CCc1cn(Cc3ccccc3)cc1-2

5.07
5.44

I'm hoping you can list pIC50 for every molecule here, please.
1. CCOC(=O)c1c2c(c(C)n1C)-c1c(cc(S(=O)(=O)c3ccccc3)c(=O)n1C)CC2
2. CCOC(=O)c1c2c(c(C)n1Cc1ccccc1)-c1[nH]c(=O)c(S(=O)(=O)c3ccccc3)cc1CC2
3. CCOC(=O)c1[nH]c(C)c2c1CCc1cc(S(=O)(=O)c3ccccc3)c(=O)[nH]c1-2
4. COc1nc2c(cc1S(=O)(=O)c1ccccc1)CCc1cn(C)cc1-2
5. CCOC(=O)c1c2c(c(C)n1Cc1ccccc1)-c1c(cc(S(=O)(=O)c3ccccc3)c(=O)n1C)CC2

[5.92, 5.54, 4.74, 6.00, 5.54]

----------
# assay_method_text: Phototoxicity in 3.75 J/cm'2 UV-A irradiated human NCTC-2544 cells after 72 hrs by MTT assay
# Type: functional, cell-based
# assay_conditions: NCTC-2544, light or radiation study
Kindly state IC50 for each of the entries shown.
Give bare numbers, in µM.

Requested read-out: IC50. Entry: `Cn1c2c(cc(S(=O)(=O)c3ccccc3)c1=O)CCc1cn(Cc3ccccc3)cc1-2`
5.8

Using the record for `CCOC(=O)c1c2c(c(C)n1C)-c1[nH]c(=O)c(S(=O)(=O)c3ccccc3)cc1CC2` , report its IC50.
6.2

Can you share its IC50? I mean this compound: `CCOC(=O)c1c2c(c(C)n1Cc1ccccc1)-c1[nH]c(=O)c(S(=O)(=O)c3ccccc3)cc1CC2`
2.5

***
Requested read-out: IC50. Entry: `COc1nc2c(cc1S(=O)(=O)c1ccccc1)CCc1cn(Cc3ccccc3)cc1-2`
9.6

----------
So I've got a bunch of compounds here, and I need their pIC50 values.
# Tested on: MCF7
# assay_method_text: Phototoxicity in 2.5 J/cm'2 UV-A irradiated human MCF7 cells after 72 hrs by MTT assay
# Assay type: functional, cell-based
# assay_conditions: MCF7, light or radiation study
pIC50: −log10 of the molar value.

Solved entries (count: 5):
What pIC50 appears in the records for this compound with MCF7? `Cc1c2c(cn1C)CCc1cc(S(=O)(=O)c3ccccc3)c(=O)[nH]c1-2`
< 4.70

Form: Entry = `CCOC(=O)c1c2c(c(C)n1C)-c1c(cc(S(=O)(=O)c3ccccc3)c(=O)n1C)CC2` | System = MCF7 | pIC50 = ____
5.77

What is its pIC50 for MCF7? Entry: `Cc1c2c(c(C(=O)O)n1C)CCc1cc(S(=O)(=O)c3ccccc3)c(=O)[nH]c1-2`
< 4.70

Request: pIC50, test system MCF7, entry `Cn1c2c(cc(S(=O)(=O)c3ccccc3)c1=O)CCc1cn(Cc3ccccc3)cc1-2`
5.18

Query the reported pIC50 for MCF7; item: `Cc1c2c(cn1Cc1ccccc1)CCc1cc(S(=O)(=O)c3ccccc3)c(=O)[nH]c1-2`
< 4.70

Provide pIC50 values for the following items, in order.
1. Cn1cc2c(c1)-c1[nH]c(=O)c(S(=O)(=O)c3ccccc3)cc1CC2
2. CCOC(=O)c1c2c(c(C)n1Cc1ccccc1)-c1c(cc(S(=O)(=O)c3ccccc3)c(=O)n1C)CC2
3. CCOC(=O)c1[nH]c(C)c2c1CCc1cc(S(=O)(=O)c3ccccc3)c(=O)n(C)c1-2

1. < 4.70
2. < 4.70
3. < 4.70

Please state pIC50 for every compound in the list that follows.
1. CCOC(=O)c1c2c(c(C)n1C)-c1[nH]c(=O)c(S(=O)(=O)c3ccccc3)cc1CC2
2. Cc1c2c(c(C(=O)O)n1Cc1ccccc1)CCc1cc(S(=O)(=O)c3ccccc3)c(=O)[nH]c1-2
3. CCOC(=O)c1c2c(c(C)n1Cc1ccccc1)-c1[nH]c(=O)c(S(=O)(=O)c3ccccc3)cc1CC2
4. O=c1[nH]c2c(cc1S(=O)(=O)c1ccccc1)CCc1cn(-c3ccccc3)cc1-2
5. O=c1[nH]c2c(cc1S(=O)(=O)c1ccccc1)CCc1cn(Cc3ccccc3)cc1-2
6. Cc1[nH]c(C(=O)O)c2c1-c1[nH]c(=O)c(S(=O)(=O)c3ccccc3)cc1CC2

[5.00, "< 4.70", 5.48, "< 4.70", "< 4.70", "< 4.70"]

For each of the compounds below, note its pIC50.
1. COc1nc2c(cc1S(=O)(=O)c1ccccc1)CCc1cn(Cc3ccccc3)cc1-2
2. COc1nc2c(cc1S(=O)(=O)c1ccccc1)CCc1cn(C)cc1-2
3. Cn1c2c(cc(S(=O)(=O)c3ccccc3)c1=O)CCc1cn(-c3ccccc3)cc1-2
4. Cn1cc2c(c1)-c1c(cc(S(=O)(=O)c3ccccc3)c(=O)n1C)CC2
5. CCOC(=O)c1[nH]c(C)c2c1CCc1cc(S(=O)(=O)c3ccccc3)c(=O)[nH]c1-2

1: 5.00; 2: 5.60; 3: < 4.70; 4: < 4.70; 5: < 4.70

----------
For each record, write down the corresponding IC50.
# Tested on: HL-60
# assay_method_text: Phototoxicity in 3.75 J/cm'2 UV-A irradiated human HL60 cells after 72 hrs by MTT assay
# Type: functional, cell-based
# assay_conditions: HL-60, light or radiation study

Look over these answered cases.
Give HL-60 IC50 for `CCOC(=O)c1[nH]c(C)c2c1CCc1cc(S(=O)(=O)c3ccccc3)c(=O)[nH]c1-2`
9.1 µM

Fill in the recorded IC50 for this compound, with HL-60 as test system: `CCOC(=O)c1c2c(c(C)n1Cc1ccccc1)-c1c(cc(S(=O)(=O)c3ccccc3)c(=O)n1C)CC2`
2.6 µM

// lookup IC50 | system=HL-60 | key= `Cn1c2c(cc(S(=O)(=O)c3ccccc3)c1=O)CCc1cn(Cc3ccccc3)cc1-2`
2.8 µM

Query for HL-60: what IC50 does the record show for `CCOC(=O)c1[nH]c(C)c2c1CCc1cc(S(=O)(=O)c3ccccc3)c(=O)n(C)c1-2` ?
5.8 µM

Form: Entry = `O=c1[nH]c2c(cc1S(=O)(=O)c1ccccc1)CCc1cn(-c3ccccc3)cc1-2` | System = HL-60 | IC50 = ____
8 µM

What measured IC50 is associated with `CCOC(=O)c1c2c(c(C)n1C)-c1[nH]c(=O)c(S(=O)(=O)c3ccccc3)cc1CC2` on HL-60?
1.8 µM

Query IC50 on HL-60 for `Cn1cc2c(c1)-c1c(cc(S(=O)(=O)c3ccccc3)c(=O)n1C)CC2`
> 20 µM

Param readout = IC50; param system = HL-60; param query = `CCOC(=O)c1c2c(c(C)n1C)-c1c(cc(S(=O)(=O)c3ccccc3)c(=O)n1C)CC2` ; response: value
0.9 µM

I need IC50 for every entry listed below, if you could help.
1. Cc1c2c(c(C(=O)O)n1C)CCc1cc(S(=O)(=O)c3ccccc3)c(=O)[nH]c1-2
2. Cc1[nH]c(C(=O)O)c2c1-c1[nH]c(=O)c(S(=O)(=O)c3ccccc3)cc1CC2

1. > 20 µM
2. > 20 µM

Give IC50 for all compounds that follow.
1. COc1nc2c(cc1S(=O)(=O)c1ccccc1)CCc1cn(C)cc1-2
2. Cc1c2c(c(C(=O)O)n1Cc1ccccc1)CCc1cc(S(=O)(=O)c3ccccc3)c(=O)[nH]c1-2
3. Cc1c2c(cn1C)CCc1cc(S(=O)(=O)c3ccccc3)c(=O)[nH]c1-2
4. CCOC(=O)c1c2c(c(C)n1Cc1ccccc1)-c1[nH]c(=O)c(S(=O)(=O)c3ccccc3)cc1CC2
5. Cc1c2c(cn1Cc1ccccc1)CCc1cc(S(=O)(=O)c3ccccc3)c(=O)[nH]c1-2

1: 0.9 µM; 2: > 20 µM; 3: > 20 µM; 4: 0.8 µM; 5: 2.5 µM

Below are some compounds; for each one, tell me its IC50.
1. COc1nc2c(cc1S(=O)(=O)c1ccccc1)CCc1cn(Cc3ccccc3)cc1-2
2. Cn1c2c(cc(S(=O)(=O)c3ccccc3)c1=O)CCc1cn(-c3ccccc3)cc1-2
3. O=c1[nH]c2c(cc1S(=O)(=O)c1ccccc1)CCc1cn(Cc3ccccc3)cc1-2
4. Cn1cc2c(c1)-c1[nH]c(=O)c(S(=O)(=O)c3ccccc3)cc1CC2

["7.3 µM", "> 20 µM", "14.5 µM", "5.6 µM"]
